- system name: ribonucleoprotein (RNP)
- method notes: AtheNA Multi-Lyte ANA, Ab at 12.5 ug/ml;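 also: monoclonal antibodies screened for binding to a panel of nuclear autoantigens (SSA, SSB, Sm, RNP, Scl-70, Jo-1, dsDNA, CentB, histones), with anti-HIV and anti-RSV antibodies as controls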
endpoint: AtheNA signal
// return just the number, without any unit appended

As a guide, the following entries are already answered.
binder | AtheNA signal
Ab7960/293i (antibody, IgG1, V domains shown, Recombinant human antibody with IgG1 heavy chain backbone and kappa light chain constant; they begin at LVESGGG and MTQSP; also called mAb 7960; mAb7960) VH: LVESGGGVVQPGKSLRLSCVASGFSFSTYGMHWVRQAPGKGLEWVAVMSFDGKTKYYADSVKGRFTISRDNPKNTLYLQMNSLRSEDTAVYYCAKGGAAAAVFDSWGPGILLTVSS VL: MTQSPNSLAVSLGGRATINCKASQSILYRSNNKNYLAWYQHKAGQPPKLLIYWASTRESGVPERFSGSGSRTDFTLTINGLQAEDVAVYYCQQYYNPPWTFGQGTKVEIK | 3
Ab7955 (antibody, V domains shown, Recombinant human antibody with IgG1 heavy chain backbone and kappa light chain constant; also called mAb 7955; clone 19) VH: LVESGGGVVRPGRSLRLSCVASGFTFNAYGMHWVRQGPGKGLEWLAVISYEGKTVYYADSVKDRFTISRDNSRNTVSLHLNNLRGEDTAVYYCAKGSASAAVLQHWGQGTLVSVTS VL: MTQSPGSLAVSLGSRATINCKSSRSLLYRSNNKNYLAWYQQKPGQSPRLLIYWASSRESGVPDRFSGGGSGTSFTLTISSLQAEDVAVYYCQQYFNPPWTFGQGTKVEIK | 8

Task: Could you share which AtheNA signal value was measured for Ab7957/293i (antibody, IgG1, V domains shown, Recombinant human antibody with IgG1 heavy chain backbone and kappa light chain constant; they begin at LVESGGG and MTQSP; also called Ab7957i; mAb 7957) VH: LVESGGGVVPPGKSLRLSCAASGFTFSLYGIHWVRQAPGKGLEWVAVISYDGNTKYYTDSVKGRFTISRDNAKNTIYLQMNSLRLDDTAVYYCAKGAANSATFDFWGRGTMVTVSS VL: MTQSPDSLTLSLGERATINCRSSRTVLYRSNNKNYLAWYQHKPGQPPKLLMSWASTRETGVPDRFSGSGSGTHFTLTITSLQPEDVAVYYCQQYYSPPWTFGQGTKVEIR ?
Result: 3
